Target: SARS-CoV-2 NSP3 macrodomain (Mac1) (Severe acute respiratory syndrome coronavirus 2)
Assay type: binding
Conditions: crystallographic refinement
outcome-measure: Refined ligand occupancy (%)
Give just the numeric value; % need not be written.

Challenge: Form entry - test system: SARS-CoV-2 NSP3 macrodomain (Mac1) (Severe acute respiratory syndrome coronavirus 2); read-out: Refined ligand occupancy (%); molecule: OC1(CNc2ncnc3[nH]ccc23)CC2CCC1CC2 (centres unmarked)
Response given: 28

Challenge: Form entry - test system: SARS-CoV-2 NSP3 macrodomain (Mac1) (Severe acute respiratory syndrome coronavirus 2); read-out: Refined ligand occupancy (%); molecule: O=C(O)C(c1ccccc1)n1sc2ccccc2c1=O (centres unmarked)
Response given: 74

Challenge: Form entry - test system: SARS-CoV-2 NSP3 macrodomain (Mac1) (Severe acute respiratory syndrome coronavirus 2); read-out: Refined ligand occupancy (%); molecule: CC(C)(C)C1CCCN1c1ncnc2[nH]ccc12 (centres unmarked)
Response given: 14

Challenge: Form entry - test system: SARS-CoV-2 NSP3 macrodomain (Mac1) (Severe acute respiratory syndrome coronavirus 2); read-out: Refined ligand occupancy (%); molecule: CC(O)C(C)Nc1ncnc2[nH]ccc12 (centres unmarked)
Response given: 34

Challenge: Form entry - test system: SARS-CoV-2 NSP3 macrodomain (Mac1) (Severe acute respiratory syndrome coronavirus 2); read-out: Refined ligand occupancy (%); molecule: Cc1c[nH]c2ncnc(NCC3(O)CCOCC3)c12
Response given: 18
